TARGET_DESC: Carbonic anhydrase 2 (Homo sapiens) (UniProt P00918)
ASSAY_TEXT: CAII small-molecule binders, profiling panel, biochemical, small-molecule microarray, Alexa647-labelled CAII (AID 1122)
SETTINGS: CAII-A647 binding fluorescence, higher = more signal
Parameter threshold = 0.5. Response is condition met when composite z-score meets or exceeds it, else condition not met.

Q. Threshold query (composite z-score >= 0.5) on "COc1ccc([Si](C)(C)[C@@H]2[C@@H](CC(=O)N(CCO)Cc3ccccc3)O[C@]3(C(=O)N(C)c4ccccc43)[C@H]2C)cc1"
A. condition met

Q. Threshold query (composite z-score >= 0.5) on "CCOC(=O)C1=C[C@@H](CC)N(S(=O)(=O)c2ccc(C)cc2)[C@H]1c1ccccc1"
A. condition met

Q. Threshold query (composite z-score >= 0.5) on "Cc1ccc(S[C@]2(C(=O)NCc3ccccc3)CC(=O)N(Cc3ccccc3Cl)[C@@H]2c2ccc(CO)cc2I)cc1"
A. condition met

Q. Threshold query (composite z-score >= 0.5) on "COCCCNC(=O)[C@@]1(c2ccc([N+](=O)[O-])cc2)CC(=O)N(CC23CC4CC(CC(C4)C2)C3)[C@@H]1c1ccc(CO)cc1"
A. condition not met

Q. Threshold query (composite z-score >= 0.5) on "COc1ccc([Si](C)(C)[C@@H]2[C@@H](CC(=O)N3CCC[C@H]3CO)O[C@]3(C(=O)N(C)c4c(Br)cc(C)cc43)[C@H]2C)cc1"
A. condition not met

Q. Threshold query (composite z-score >= 0.5) on "CCCN1C(=O)[C@@]2(CCC(=O)OC(C)(C)C)N=C(c3ccc(OCCCO)cc3)O[C@H]2c2ccccc21"
A. condition not met

Q. Threshold query (composite z-score >= 0.5) on COc1ccc(C(O)C2C=CC3C(=O)N(c4ccccc4)C(=O)C3N2Nc2ccc([N+](=O)[O-])cc2)cc1OCc1ccccc1 (configuration not stated)
A. condition met

----------
Consider the following compounds; for each one, report its z-score.
ASSAY_TEXT: Plasmodium falciparum growth inhibition, primary screen, strain 3D7, DAPI fluorescence, 100 nL (AID 1184);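 also: parasites grown inside human red blood cells in medium with human serum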
SETTINGS: P. falciparum 3D7 growth, 3 d, higher = more signal
# print the numeric value only

Q. What does the data say about its z-score? Entry: "O=C1O[C@H](c2ccccc2)[C@H](c2ccccc2)N2[C@H]1[C@@H](C(=O)O)[C@]1(C(=O)Nc3ccc(C#CC4(O)CCCCCC4)cc31)[C@H]2c1ccc(OCCO)cc1"
A. 0.362

Q. What does the data say about its z-score? Entry: "COCCOC(=O)N1C(=O)[C@@]2(c3cc(C#CCNC(N)=O)ccc31)[C@H](c1ccc(O)cc1)N1[C@H](c3ccccc3)[C@H](c3ccccc3)OC(=O)[C@H]1[C@@H]2C(=O)NC[C@H](O)c1ccccc1"
A. -0.0916

Q. What does the data say about its z-score? Entry: Cc1cc(C)c(C(O)C2C=CC3C(=O)N(c4ccccc4)C(=O)C3N2Nc2ccc(C#N)cc2)c(C)c1 (stereo unspecified)
A. -0.558

Q. What does the data say about its z-score? Entry: "CN(C)CCCNC(=O)[C@@]1(Cc2ccccc2I)c2ccccc2C(=O)N(Cc2ccccc2C(F)(F)F)[C@H]1c1ccc(CO)cc1"
A. -1.83

Q. What does the data say about its z-score? Entry: "COCCCNC(=O)[C@@]1(C)c2ccccc2C(=O)N(Cc2cc(C(F)(F)F)cc(C(F)(F)F)c2)[C@H]1c1ccc(CO)cc1"
A. -0.577

Q. What does the data say about its z-score? Entry: COc1cccc(C(=O)O[C@H]2CC[C@]3(C)C4=C(CCC3C2(C)C)[C@]2(C)CC[C@H]([C@H](C)CCCC(C)C)[C@@]2(C)CC4)c1 (stereo partly specified)
A. -0.0127

----------
TARGET_DESC: Torsin-1A (Homo sapiens)
ASSAY_TEXT: small-molecule binders of mutant TOR1A in lysate, primary screen, cell lysate, small-molecule microarray, COS7 lysate, 635/667 nm fluorescence (AID 1150);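 also: score pools 667 nm emission and signal to noise measuring lysate protein binding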
SETTINGS: COS7 hTOR1A mutant lysate, 635 nm fluorescence, higher = more signal
MEASURED_QUANTITY: composite z-score

Q. Form field: composite z-score recorded for CC(C)C(O)C1C=CC2C(=O)N(c3ccccc3)C(=O)C2N1Nc1ccc(C#N)cc1 (configuration not stated) with Torsin-1A (Homo sapiens) (enter value)
A. 0.719

Q. Form field: composite z-score recorded for "O=C1N(CCS(=O)(=O)c2ccccc2)Cc2ccccc2[C@H]2OC(c3ccc(OCCCO)cc3)=N[C@@]12CCS(=O)(=O)c1ccccc1" with Torsin-1A (Homo sapiens) (enter value)
A. -0.0941

Q. Form field: composite z-score recorded for CCN(CC)c1ccc(N2CC=CC34O[C@@H]5/C=C\CCCOC(=O)C5[C@H]3C(=O)N(C(CO)C(C)C)[C@@H]4C2=O)cc1 (some centres not stated) with Torsin-1A (Homo sapiens) (enter value)
A. -1.2

Q. Form field: composite z-score recorded for "COC(=O)[C@@]1(Cc2ccc(F)cc2)[C@H]2c3cc(C(=O)N4CCCC4)n(Cc4cccc5ccccc45)c3C[C@H]2CN1C(=O)c1ccccc1" with Torsin-1A (Homo sapiens) (enter value)
A. -0.0286

Q. Form field: composite z-score recorded for "C=CCN1C(=O)[C@]2(O[C@H](CCO)[C@@H]([Si](C)(C)c3ccc(OC)cc3)[C@@H]2C)c2cc(NC(=O)[C@H](C)O)ccc21" with Torsin-1A (Homo sapiens) (enter value)
A. 0.499

Q. Form field: composite z-score recorded for "C[N+](C)(C)CCCCCCNC(=O)[C@H]1C[C@H]2C(=O)N3CCC[C@H]3C(=O)N2[C@H]1c1ccc(O)cc1" with Torsin-1A (Homo sapiens) (enter value)
A. 0.599

Q. Form field: composite z-score recorded for CCCCCN1CC=CC23O[C@@H]4C=CCOC(=O)[C@@H]4[C@H]2C(=O)N(CCCO)[C@@H]3C1=O (some centres not stated) with Torsin-1A (Homo sapiens) (enter value)
A. 2.31

----------
ASSAY_TEXT: small-molecule binders of probe aNOTCH3, primary screen, biochemical, small-molecule microarray, 635/667 nm fluorescence (AID 1120);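 also: probe is a biotin-tagged antibody raised against NOTCH3 rather than NOTCH3 protein; score merges spot fluorescence near 667 nm with spot signal to noise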
SETTINGS: higher = more signal
MEASURED_QUANTITY: composite z-score
# print the numeric value only

Q. What does the data say about its composite z-score? Entry: COc1cccc(C(=O)O[C@H]2CC[C@]3(C)C4=C(CCC3C2(C)C)[C@]2(C)CC[C@H]([C@H](C)CCCC(C)C)[C@@]2(C)CC4)c1 (stereo partly specified)
A. -0.0414

Q. What does the data say about its composite z-score? Entry: "O=C1O[C@H](c2ccccc2)[C@H](c2ccccc2)N2[C@H]1[C@@H](C(=O)O)[C@]1(C(=O)Nc3ccc(C#CC4=CCCCC4)cc31)[C@H]2c1ccc(OCCO)cc1"
A. 0.133

Q. What does the data say about its composite z-score? Entry: "[N-]=[N+]=Nc1ccccc1[C@@H]1OC(c2ccc(OCCCO)cc2)=N[C@]1(CCS(=O)(=O)c1ccccc1)C(=O)N1CCOCC1"
A. 0.287

Q. What does the data say about its composite z-score? Entry: "NC(=O)NCC#Cc1ccc2c(c1)[C@]1(C(=O)N2)[C@H](C(=O)N2CCCCCCC2)[C@H]2C(=O)O[C@H](c3ccccc3)[C@H](c3ccccc3)N2[C@@H]1c1ccc(OCCO)cc1"
A. 1.29

Q. What does the data say about its composite z-score? Entry: "CCOC(=O)C1=CC[C@@H](c2ccccc2)N(S(=O)(=O)c2ccc(C)cc2)[C@H]1C(=O)OCC"
A. 0.421

Q. What does the data say about its composite z-score? Entry: "COCCOC(=O)N1C(=O)[C@@]2(c3cc(C#CC4(O)CCCCCC4)ccc31)[C@H](C(=O)N1CCCCCCC1)[C@H]1C(=O)O[C@H](c3ccccc3)[C@H](c3ccccc3)N1[C@@H]2c1ccccc1OCCO"
A. 0.922

----------
ASSAY_TEXT: small-molecule microarray binders of probe aNog, primary screen, biochemical, biotinylated probe, 635/667 nm fluorescence (AID 1115);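 also: probe is biotinylated aNog protein used at 0.15 µg/mL for 1 h at 4 C; z-score combines 667 nm fluorescence of each spot with its signal to noise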
SETTINGS: higher = more signal
Parameter threshold = 1. Response is met when composite z-score meets or exceeds it, else not met.

Q. Threshold query (composite z-score >= 1) on "CN(C)CCCCCCNC(=O)[C@H]1C[C@H]2C(=O)N[C@@H](CCCCN)C(=O)N2[C@H]1c1ccc(O)cc1"
A. met

Q. Threshold query (composite z-score >= 1) on "C=C[C@H](COC(C)=O)N(Cc1ccc(OC(C)=O)c(OC)c1)S(=O)(=O)c1ccc(Br)cc1"
A. not met

Q. Threshold query (composite z-score >= 1) on "COC(=O)[C@@]1(Cc2ccc(OC)cc2)[C@H]2c3cc(C(=O)N4CCCC4)n(Cc4cc(F)cc5c4OCOC5)c3C[C@H]2CN1C(=O)c1ccccc1"
A. not met

Q. Threshold query (composite z-score >= 1) on "Cc1ccc(S[C@]2(C(=O)NCc3ccccc3)CC(=O)N(Cc3ccccc3Cl)[C@@H]2c2ccc(CO)cc2I)cc1"
A. not met

Q. Threshold query (composite z-score >= 1) on "COCCOC(=O)N1C(=O)[C@@]2(c3cc(C#CCC(C(=O)OC)C(=O)OC)ccc31)[C@H](c1ccc(O)cc1)N1[C@H](c3ccccc3)[C@H](c3ccccc3)OC(=O)[C@H]1[C@@H]2C(N)=O"
A. met

Q. Threshold query (composite z-score >= 1) on C=CCC(OC(C)=O)[C@@H]1[C@@H](N(Cc2ccc(-c3ccccc3)cc2)C(=O)Cc2ccc(OC)cc2)c2cc(OCCCO)ccc2N1C(=O)c1ccc2ccccc2n1 (some centres undefined)
A. not met

Q. Threshold query (composite z-score >= 1) on O=C1OCCC=C[C@H]2OC34C=CCN(c5ccc6ccccc6c5)C(=O)[C@H]3N(CCCCCO)C(=O)[C@@H]4C12 (some centres undefined)
A. not met

Q. Threshold query (composite z-score >= 1) on CCCCCCCCCCC(O)C1C=CC2C(=O)N(Cc3ccccc3)C(=O)C2N1n1cnnc1 (centres undefined)
A. not met

Q. Threshold query (composite z-score >= 1) on [N-]=[N+]=NCc1ccccc1C[C@]1(C(=O)NCC(O)CO)N=C(c2ccc(OCCCO)cc2)O[C@H]1c1ccccc1N=[N+]=[N-] (some centres undefined)
A. met

Q. Threshold query (composite z-score >= 1) on CC(C)=CCCC(C)=CC(O)C1C=CC2C(=O)N(c3ccccc3)C(=O)C2N1Nc1ccccc1 (centres undefined)
A. met

Q. Threshold query (composite z-score >= 1) on "C=CC[C@]1(C(=O)N2CCOCC2)N=C(c2ccc(OCCCO)cc2)O[C@H]1c1ccccc1"
A. met

Q. Threshold query (composite z-score >= 1) on "O=C1O[C@@H](c2ccccc2)[C@@H](c2ccccc2)N2[C@@H](c3ccc(O)cc3)[C@]3(C(=O)Nc4ccc(C#CC5(O)CCCCCC5)cc43)[C@@H](C(=O)N3CCCCCCC3)[C@H]12"
A. met

Q. Threshold query (composite z-score >= 1) on "COc1ccc([Si](C)(C)[C@H]2[C@H](CCn3cc(CCO)nn3)O[C@@]3(C(=O)N(Cc4ccc(N5CCOC5=O)cc4)c4ccccc43)[C@@H]2C)cc1"
A. not met

Q. Threshold query (composite z-score >= 1) on "CC(C)C(=C=CC[C@H](O)c1cccc(OCCO)c1)C[C@H](O)COCc1ccccc1"
A. not met

// data source = PubChem BioAssay
